Values from patent US20050282818A1

Please provide measured IC50 for the entries that follow.
experimental-target: APC11/APC2 (Homo sapiens, UniProt Q9NYG5+Q9UJX6)
Sequence (Q9NYG5 whole entry): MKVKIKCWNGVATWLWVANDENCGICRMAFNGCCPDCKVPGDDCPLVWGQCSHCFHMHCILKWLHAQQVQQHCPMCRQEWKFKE
Sequence (Q9UJX6 whole entry): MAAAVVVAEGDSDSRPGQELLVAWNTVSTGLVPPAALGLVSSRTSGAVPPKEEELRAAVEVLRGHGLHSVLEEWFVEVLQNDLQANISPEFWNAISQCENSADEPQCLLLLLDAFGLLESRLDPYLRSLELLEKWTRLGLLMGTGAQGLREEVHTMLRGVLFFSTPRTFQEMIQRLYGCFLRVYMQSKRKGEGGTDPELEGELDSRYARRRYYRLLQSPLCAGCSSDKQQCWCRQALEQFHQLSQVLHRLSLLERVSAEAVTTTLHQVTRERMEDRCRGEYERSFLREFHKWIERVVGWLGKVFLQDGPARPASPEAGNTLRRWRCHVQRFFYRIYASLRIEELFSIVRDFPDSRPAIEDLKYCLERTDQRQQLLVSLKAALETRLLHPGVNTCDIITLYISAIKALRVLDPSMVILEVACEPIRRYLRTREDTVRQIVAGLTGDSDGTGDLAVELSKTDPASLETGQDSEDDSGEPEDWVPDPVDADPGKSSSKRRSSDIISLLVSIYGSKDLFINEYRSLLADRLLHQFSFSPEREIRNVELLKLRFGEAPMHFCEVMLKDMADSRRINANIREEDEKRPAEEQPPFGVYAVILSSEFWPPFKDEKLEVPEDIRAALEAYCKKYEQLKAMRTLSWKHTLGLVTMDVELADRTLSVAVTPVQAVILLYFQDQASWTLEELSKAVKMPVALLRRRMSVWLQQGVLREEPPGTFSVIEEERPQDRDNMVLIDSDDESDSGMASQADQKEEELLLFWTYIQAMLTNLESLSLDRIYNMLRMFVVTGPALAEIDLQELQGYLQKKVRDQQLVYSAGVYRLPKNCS
measurement-description: APC-11/APC-2 ligase assay (APC auto ubiquitination)
test-settings: APC assay

// solved cases for IC50 follow
1) O=S(=O)(NCc1ccccn1)c1ccc(Cl)c2nonc12    ≥ 20 µM
2) COc1cc(C)ccc1NS(=O)(=O)c1ccc(N2CCOCC2)c2nonc12    ≥ 20 µM
3) COc1ccc2nonc2c1-c1cc(C)cc(C)c1    ≥ 20 µM
4) O=[N+]([O-])c1ccc(-c2ccc(Oc3ccccc3)cc2)c2nonc12    1 to 20 µM

Respectfully, I request IC50 for each entry included below.
1. COc1ccc(-c2ccc([N+](=O)[O-])c3nonc23)cc1OC
2. Cc1cc(C)cc(-c2cc3nsnc3cc2F)c1
3. O=[N+]([O-])c1ccc(N2CCC(O)(c3ccc(Cl)cc3)CC2)c2nonc12
4. COCCNS(=O)(=O)c1ccc(Cl)c2nonc12
5. O=S(=O)(Nc1cccc2ccccc12)c1ccc(Cl)c2nonc12
6. Cc1ccc(F)cc1NS(=O)(=O)c1ccc(Cl)c2nonc12
7. O=[N+]([O-])c1ccc(C2=CCCCC2)c2nonc12
8. O=C(O)c1ccc(NS(=O)(=O)c2ccc(Cl)c3nonc23)cc1

Response:
1. ≥ 20 µM
2. ≥ 20 µM
3. 1 to 20 µM
4. ≥ 20 µM
5. ≥ 20 µM
6. ≥ 20 µM
7. ≥ 20 µM
8. ≥ 20 µM

Respectfully, I request IC50 for each entry included below.
1. O=S(=O)(c1ccc(Sc2cccc3cccnc23)c2nonc12)N1CCN(c2ncc(C(F)(F)F)cc2Cl)CC1
2. O=[N+]([O-])c1ccc(Nc2ccccc2OC(F)(F)F)c2nonc12
3. COc1ccc(OC)c(NS(=O)(=O)c2ccc(Cl)c3nonc23)c1
4. COc1ccccc1-c1cc([N+](=O)[O-])cc2nonc12

Response:
1: 1 to 20 µM; 2: 1 to 20 µM; 3: ≥ 20 µM; 4: ≥ 20 µM

Respectfully, I request IC50 for each entry included below.
1. Nc1ccc(Nc2cccc(F)c2F)c2nonc12
2. FC(F)(F)c1cc(-c2ccccc2)c2nonc2c1
3. O=[N+]([O-])c1ccc(Sc2cccc(Cl)c2)c2nonc12

Response:
1. ≥ 20 µM
2. ≥ 20 µM
3. 1 to 20 µM
